These data points were gathered from patent US11066414B2.

# target_system: Human Cot (Homo sapiens (Human), UniProt P41279)
# Sequence (P41279 30-397): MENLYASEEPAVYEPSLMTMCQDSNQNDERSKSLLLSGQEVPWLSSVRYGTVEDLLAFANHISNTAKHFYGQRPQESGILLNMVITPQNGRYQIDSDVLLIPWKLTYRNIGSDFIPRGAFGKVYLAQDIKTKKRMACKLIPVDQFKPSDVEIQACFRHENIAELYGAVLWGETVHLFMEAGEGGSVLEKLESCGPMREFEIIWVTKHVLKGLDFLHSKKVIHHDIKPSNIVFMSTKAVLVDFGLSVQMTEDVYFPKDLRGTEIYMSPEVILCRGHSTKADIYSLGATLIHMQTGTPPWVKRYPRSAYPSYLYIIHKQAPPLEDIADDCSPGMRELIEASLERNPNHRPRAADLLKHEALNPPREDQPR
# assay_explanation: High Throughput Cot Biochemical Assay
# condition_info: IC50 HTRF, Cot HTRF (TR-FRET KinEASE) biochemical assay, 400 μM ATP
For each record, write down the corresponding IC50.
One number for each entry, in nM.

Use these answered entries as a reference point.
Cc1ccc([C@H](Nc2cc(C#N)c3ncc(C#N)c(NCC(C)(C)C)c3c2)c2cn(C3(C(F)F)CC3)nn2)c(C)n1 : 4
Cc1nc(F)ccc1[C@H](Nc1cc(C#N)c2ncc(C#N)c(NCC(C)(C)C(F)(F)F)c2c1)c1cn(C23CC(C2)C3)nn1 : 2

Attention now shifts to the item below.
INPUT: Look up IC50 with Human Cot (Homo sapiens (Human), UniProt P41279) for this compound: Cn1c(=O)ccc2c([C@H](Nc3cc(C#N)c4ncc(C#N)c(NCC(C)(C)C)c4c3)c3cn(C4(C(F)(F)F)CC4)nn3)cccc21
OUTPUT: 6
